target: T1, HLA-A*0201 (human); test: inhibition of 125I-labelled standard peptide binding to purified HLA, gel filtration; ratio = IC50 of standard / IC50 of test peptide
T1 construct: also called HLA-A2.1
Experimental Readout: relative binding ratio

Observe how each entry below is paired with its result.
binder="RMARDPQRFV [HER2/neu peptide, position 978, 10 amino acids]" experimental_readout="relative binding ratio" endpoint_value="0.002 ratio to standard peptide"
binder="SLPTHDPSPL [HER2/neu peptide, position 1100, 10 amino acids]" experimental_readout="relative binding ratio" endpoint_value="0.0059 ratio to standard peptide"
binder="SIISAVVGIL [HER2/neu peptide, position 653, 10 amino acids]" experimental_readout="relative binding ratio" endpoint_value="0.0002 ratio to standard peptide"
binder="TIDVYMIMV [HER2/neu peptide, position 948, 9 amino acids]" experimental_readout="relative binding ratio" endpoint_value="0.0005 ratio to standard peptide"
binder="RLPASPETHL [HER2/neu peptide, position 34, 10 amino acids]" experimental_readout="relative binding ratio" endpoint_value="0.0001 ratio to standard peptide"
binder="SAWPDSLPDL (T0022 prints L there and the analog Her2/neu.415.I8 implies a native L, so L is used) [HER2/neu peptide, position 413, 10 amino acids]" experimental_readout="relative binding ratio" endpoint_value="0.0002 ratio to standard peptide"

Hi! Can you tell me relative binding ratio for each of these binders?
1. TAENPEYLGL [HER2/neu peptide, position 1242, 10 amino acids]
2. SLRELGSGL [HER2/neu peptide, position 457, 9 amino acids]

Response:
1. 0.0001 ratio to standard peptide
2. 0.0002 ratio to standard peptide
